biological target: trypsin; test: other, trypsin inhibition
Bridge positions count the residues as written; N and C are the ends. Ends that are not written are not given here.

binder | Ki (nM)
IPRCRKMPGVKMC (disulfide 4-13) [Seq01] | 22.5
VEQCTIIGDAKDC (disulfide 4-13) [Seq03] | 63.6
LHRCDKIADAKPC (disulfide 4-13) [Seq05] | 44

Data credit: patent US20100144607
